# ASSAY_OVERVIEW: 13-week oral administration non-clinical safety study, rat
# Type: in vivo
# CONDITION_DESCRIPTION: female, rat, in vivo; 30 mg/kg/day oral, study day 88, females; read-out: AUC0-24
# Description: Study Design. […] Rats were administered 0 (vehicle), 3, 10 and 30 mg/kg/day, and Mini-pigs were administered 0 (vehicle) 10, 30 and 60 mg/kg/day
TEST_READOUT: AUC(0-t) (ng·h/mL)

1) Cc1cnc(-c2ccnc(C(C)(C)O)n2)cc1-n1c(C)cc(OCc2ncc(F)cc2F)c(Cl)c1=O (single isomer, unassigned)    43500

###

# ASSAY_OVERVIEW: Phase 1 SAD/MAD pharmacokinetics of oral ATI-450 in healthy subjects (incl. 80/120 mg BID extension)
# Type: in vivo, human
# CONDITION_DESCRIPTION: both sexes, human, plasma, oral, 10 mg, 10 mg BID, day 1; read-out: Tmax, median (min, max)
# Procedure: Study Design. […] Single ascending dose (SAD) cohorts. […] Multiple ascending dose (MAD) cohorts. […] Blood Sampling and Bioanalysis. Two-milliliter blood samples were collected for PK analysis. […] The lower limit of quantification was 0.500 ng/mL. Pharmacokinetics. […] The method was minimally required to have intra- and inter-day precision (coefficients of variation) for pooled plasma quality control samples of ≤15% except at the lower limit of quantitation, where ≤20% was acceptable. […]
TEST_READOUT: Tmax (h)

1) Cc1cnc(-c2ccnc(C(C)(C)O)n2)cc1-n1c(C)cc(OCc2ncc(F)cc2F)c(Cl)c1=O (single isomer, unassigned)    2

###

# ASSAY_OVERVIEW: Phase 1 SAD/MAD pharmacokinetics of oral ATI-450 in healthy subjects (incl. 80/120 mg BID extension)
# Type: in vivo, human
# CONDITION_DESCRIPTION: both sexes, human, plasma, oral, 120 mg, 120 mg BID, day 1
TEST_READOUT: AUC (ng·h/mL)

1. Cc1cnc(-c2ccnc(C(C)(C)O)n2)cc1-n1c(C)cc(OCc2ncc(F)cc2F)c(Cl)c1=O (single isomer, unassigned)    2320

###

# ASSAY_OVERVIEW: Phase 1 SAD/MAD pharmacokinetics of oral ATI-450 in healthy subjects (incl. 80/120 mg BID extension)
# Assay type: in vivo, human
# CONDITION_DESCRIPTION: both sexes, human, plasma, oral, 30 mg, 30 mg BID, day 7; read-out: Cmax
TEST_READOUT: Cmax (ng/mL)

1) Cc1cnc(-c2ccnc(C(C)(C)O)n2)cc1-n1c(C)cc(OCc2ncc(F)cc2F)c(Cl)c1=O (single isomer, unassigned)    146

###

# ASSAY_OVERVIEW: Phase 1 SAD/MAD pharmacokinetics of oral ATI-450 in healthy subjects (incl. 80/120 mg BID extension)
# Assay type: in vivo, human
# CONDITION_DESCRIPTION: both sexes, human, plasma, oral, 80 mg, 80 mg BID, day 1; read-out: AUC0-t
TEST_READOUT: AUC(0-t) (ng·h/mL)

1. Cc1cnc(-c2ccnc(C(C)(C)O)n2)cc1-n1c(C)cc(OCc2ncc(F)cc2F)c(Cl)c1=O (single isomer, unassigned)    1680

###

# ASSAY_OVERVIEW: Phase 1 SAD/MAD pharmacokinetics of oral ATI-450 in healthy subjects (incl. 80/120 mg BID extension)
# Assay type: in vivo, human
# CONDITION_DESCRIPTION: both sexes, human, plasma, oral, 120 mg, 120 mg BID, day 7; read-out: Tmax, median (min, max)
TEST_READOUT: Tmax (h)

1. Cc1cnc(-c2ccnc(C(C)(C)O)n2)cc1-n1c(C)cc(OCc2ncc(F)cc2F)c(Cl)c1=O (single isomer, unassigned)    2
